Hey, just so you know, these numbers are from ChEMBL document CHEMBL4513216.

Assign INHIBITION to each entry below.
- Tested on: Plasmodium berghei
- Measurement Protocol: Screen against P. berghei liver stage (PbLuc), transformed with Luciferase, at 2uM
- Type: functional, HepG2
- Condition Details: tested at 2 uM
Screen size: about 68,000 compounds; about 2,700 (4%) showed an effect of 50% or more. The sample holds strong results, similar compounds and a random draw of the others, so the mix is not that of the screen.
Expressed in %, but write only the number.

QUERY: State recorded INHIBITION with Plasmodium berghei, entry `CCc1nc(CN2CCCN(C(=O)c3ccco3)CC2)cs1` , no comment.
RESULT: 70.27

QUERY: Under Plasmodium berghei, report INHIBITION for c1ccc(Cc2cccc(C3CCCN3C3CCOCC3)n2)cc1 (centres undefined)
RESULT: 44.16

QUERY: State the measured INHIBITION (Plasmodium berghei) of `Cc1cccc(-n2nc(CC(C)C)nc2CS(C)(=O)=O)c1`
RESULT: 3.92

QUERY: Give INHIBITION only, for `COc1ccc2[nH]c3c(c2c1)CN(c1cc(NCCO)nc(N)n1)CC3` , using Plasmodium berghei data.
RESULT: 13.24

QUERY: # return INHIBITION of `CN(Cc1ccncn1)C(=O)CCc1[nH]nc2c1CCCC2` (system: Plasmodium berghei)
RESULT: -2.31

QUERY: Write down the reported INHIBITION (system: Plasmodium berghei) of `Cn1cnc(S(=O)(=O)N2CCO[C@H]3[C@@H](OCC4CC4)CC[C@@H]32)c1`
RESULT: -6.83

QUERY: Give INHIBITION for this entry on Plasmodium berghei: CS(=O)(=O)N1CCN(C(=O)c2cncs2)CC(C(N)=O)C1 (centres undefined)
RESULT: -33.32

QUERY: System Plasmodium berghei. Read-out INHIBITION. Item CCc1ccc(C(=O)N2CCN(CC(O)CC)CC2)o1 (centres undefined) . Report value.
RESULT: 5.59

QUERY: # return INHIBITION for `CCCN(CC)C(=O)c1cc(Cn2c(C)nc3ccccc32)[nH]n1` , test system: Plasmodium berghei
RESULT: 38.75

QUERY: Provide INHIBITION, system Plasmodium berghei, entry `CCc1nc(N)nc(N2CCCC3(CCN(C)CC3)CC2)c1C`
RESULT: -17.39

QUERY: Provide INHIBITION, system Plasmodium berghei, entry `N#CCCN(Cc1ccco1)C(=O)c1ccc(OCC2CC2)cc1`
RESULT: -5.51

QUERY: Enter INHIBITION (test system Plasmodium berghei) for CCCN1CCCC2(CCN(S(=O)(=O)N3CCC(OC)CC3)C2)C1=O (centres undefined)
RESULT: -46.38

QUERY: For Plasmodium berghei, give INHIBITION of the listed molecule: `CCn1nc(C)cc1C(=O)N1C[C@@H]2C[C@@H](c3nnc(C)[nH]3)O[C@@H]2C1`
RESULT: 24.23

QUERY: State INHIBITION (Plasmodium berghei) of `CCc1nc(CN2CCCN(C(=O)c3ccccc3)CC2)cs1` .
RESULT: -10.44

QUERY: Report INHIBITION under test system Plasmodium berghei for `COc1ccc(C(=O)N2CCN(c3cc(CCN)nc(C)n3)CC2)cc1` .
RESULT: -10.41

QUERY: Answer with INHIBITION of `COc1ccnc(N2CCN(C(=O)COCC(F)(F)F)CC2)n1` measured for Plasmodium berghei.
RESULT: 4.19

QUERY: Would you please give the reported INHIBITION of COc1cccc(OC2CN(C(=O)C3CCCN(C(=O)N(C)C)C3)C2)c1 (centres undefined) with Plasmodium berghei?
RESULT: 52.6

QUERY: With Plasmodium berghei as the test system, provide measured INHIBITION for this molecule: CC(=O)NCC(=O)N1CCCC2(CCC(=O)N(CCc3c[nH]cn3)C2)C1 (centres undefined)
RESULT: -53.74

QUERY: State recorded INHIBITION with Plasmodium berghei, entry `Cc1cccc(C)c1OC1CN(C(=O)C2CCN(C(=O)N(C)C)CC2)C1` , no comment.
RESULT: 24.23

QUERY: Provide the reported INHIBITION (system: Plasmodium berghei) for `CCOc1cc(C)nc(N2CCN(C(=O)c3cn[nH]c3CC)CC2)n1`
RESULT: 38.76

QUERY: Recall the reported INHIBITION of `Cc1ccc(CN2CCCn3c(nc(Cn4ccnc4)cc3=O)C2)o1` on Plasmodium berghei and write it down.
RESULT: 33.97

QUERY: Write down the reported INHIBITION (system: Plasmodium berghei) of `CNc1ncc(CN(C)C(=O)CCc2[nH]nc3c2CCCC3)cn1`
RESULT: 50.57

QUERY: Tell me its INHIBITION on Plasmodium berghei: O=C(CO)N1CCCC2(CCC(=O)N(CC3CC3)C2)C1 (centres undefined)
RESULT: 62.38

QUERY: Give Plasmodium berghei INHIBITION for the following molecule: CN(C)C(=O)NCC(=O)N1CCCC2(CCC(=O)N(CC3CC3)C2)C1 (centres undefined)
RESULT: 40.61

QUERY: Jot down INHIBITION (Plasmodium berghei) of `CS(=O)(=O)N1CCN(c2cc(-n3cccc3)ncn2)CC1` .
RESULT: 19.08

QUERY: State measured INHIBITION of the molecule CN(Cc1cccnc1)CC1CNCc2nccn2C1 (centres undefined) with Plasmodium berghei.
RESULT: 37.65

QUERY: Please look at COc1cccc(-c2noc(C3CCN(CC4CCCCC4)C3)n2)c1 (centres undefined) and tell me its recorded INHIBITION on Plasmodium berghei.
RESULT: 30.29

QUERY: GET INHIBITION where system = Plasmodium berghei and item = O=C(NCC1(O)CCC1)NC(c1cc(F)ccc1F)C1CC1 (centres undefined)
RESULT: -5.74

QUERY: Give the observed INHIBITION of Cc1cccc(C)c1OC1CN(C(=O)C2CCCN(C(=O)N(C)C)C2)C1 (centres undefined) for Plasmodium berghei.
RESULT: 10.04

QUERY: Report INHIBITION on Plasmodium berghei for this entry: C[C@@H]1CN(C(=O)c2ccc(Br)cc2F)CC(C(N)=O)O1 (some centres undefined)
RESULT: 57.34

QUERY: Lab note: Plasmodium berghei assay, enter INHIBITION for `CCc1[nH]ncc1C(=O)N1CCN(c2nccc(OC)n2)CC1` here
RESULT: -85.11

QUERY: Write down the reported INHIBITION (system: Plasmodium berghei) of `COc1c(C)cnc(CN(C)C2CCCCC2)c1C`
RESULT: 11.8

QUERY: Enter INHIBITION (test system Plasmodium berghei) for `O=C(N1CCCC1)N1C[C@@H]2CCNC[C@@H]21`
RESULT: 32.05

QUERY: # return INHIBITION of `CC(C)(N)c1cn(C2CCN(C(=O)CCC3CCCCC3)CC2)nn1` (system: Plasmodium berghei)
RESULT: 20.08

QUERY: State recorded INHIBITION with Plasmodium berghei, entry `Cc1nc(Nc2ccccn2)cc(N2CCN(S(C)(=O)=O)CC2)n1` , no comment.
RESULT: 18.99

QUERY: Specify the recorded INHIBITION for `COc1cc(CCC(=O)NC(C)(C)C)ccc1OCC(F)(F)F` , system: Plasmodium berghei.
RESULT: -1.02

QUERY: Report INHIBITION from Plasmodium berghei testing of Cc1c(C2CC(=O)Nc3c2cnn3C(C)C)cnn1C (centres undefined)
RESULT: -0.58

QUERY: # lookup: Plasmodium berghei INHIBITION, key = `CCc1nc(CN2CCCN(C(=O)c3cccn3C)CC2)cs1`
RESULT: -18.39

QUERY: Print Plasmodium berghei INHIBITION for `CCc1[nH]ncc1C(=O)N1CCN(c2nc(C)cc(OC)n2)CC1` .
RESULT: 51.83
